# Test system: Feline FcRn complex (FcRn-alpha subunit and beta-microglobulin) (feline)
# Experiment notes: SPR (Biacore), feline FcRn captured on SA chip, IgG flowed over, pH 7.4
The following binders are listed with their measured pKd values.
Scale: negative log10 of molar concentration, which is what pKd denotes.

In the examples that follow, each entry is paired with its recorded pKd.
# Binder, pKd
data = [
    ("feline IgG1a Fc mutant S428L, S434Y (antibody, part only; not given: Variable domains, not shown: another chain or arm of the molecule; small tags and cut ends) constant: ASTTAPSVFPLAPSCGTTSGATVALACLVLGYFPEPVTVSWNSGALTSGVHTFPAVLQASGLYSLSSMVTVPSSRWLSDTFTCNVAHPPSNTKVDKTVRKTDHPPGPKPCDCPKCPPPEMLGGPSIFIFPPKPKDTLSISRTPEVTCLVVDLGPDDSDVQITWFVDNTQVYTAKTSPREEQFNSTYRVVSVLPILHQDWLKGKEFKCKVNSKSLPSPIERTISKAKGQPHEPQVYVLPPAQEELSRNKVSVTCLIKSFHPPDIAVEWEITGQPEPENNYRTTPPQLDSDGTYFVYSKLSVDRSHWQRGNTYTCSVLHEALHYHHTQKSLTQSPGK", 7.65),
    ("feline IgG1a Fc mutant S428Y, S434W (antibody, part only; not given: variable domains and light chain, not shown: another chain or arm of the molecule; small tags and cut ends) constant: ASTTAPSVFPLAPSCGTTSGATVALACLVLGYFPEPVTVSWNSGALTSGVHTFPAVLQASGLYSLSSMVTVPSSRWLSDTFTCNVAHPPSNTKVDKTVRKTDHPPGPKPCDCPKCPPPEMLGGPSIFIFPPKPKDTLSISRTPEVTCLVVDLGPDDSDVQITWFVDNTQVYTAKTSPREEQFNSTYRVVSVLPILHQDWLKGKEFKCKVNSKSLPSPIERTISKAKGQPHEPQVYVLPPAQEELSRNKVSVTCLIKSFHPPDIAVEWEITGQPEPENNYRTTPPQLDSDGTYFVYSKLSVDRSHWQRGNTYTCSVYHEALHWHHTQKSLTQSPGK", 7.62),
]

Query: What measured pKd goes with feline IgG1a Fc mutant Q311K, S428Y (antibody, part only; not given: Variable domains, not shown: another chain or arm of the molecule) constant: ASTTAPSVFPLAPSCGTTSGATVALACLVLGYFPEPVTVSWNSGALTSGVHTFPAVLQASGLYSLSSMVTVPSSRWLSDTFTCNVAHPPSNTKVDKTVRKTDHPPGPKPCDCPKCPPPEMLGGPSIFIFPPKPKDTLSISRTPEVTCLVVDLGPDDSDVQITWFVDNTQVYTAKTSPREEQFNSTYRVVSVLPILHKDWLKGKEFKCKVNSKSLPSPIERTISKAKGQPHEPQVYVLPPAQEELSRNKVSVTCLIKSFHPPDIAVEWEITGQPEPENNYRTTPPQLDSDGTYFVYSKLSVDRSHWQRGNTYTCSVYHEALHSHHTQKSLTQSPGK ?
Reply: 7.44
